Where do the numbers come from? From patent US20060235076A1.

System: MRSA and MSSA
experiment_notes: Antibacterial activity of gallic acid, various gallates and multivalent phenol derivatives alone (agar plate dilution method, MIC)
Type: cell-based, Staphylococcus aureus
test_parameters: Staphylococcus aureus, MRSA #3; read-out: MIC alone
Could you please report measured MIC for the items listed next?
Reply with just the number (in µg/mL).

Please give the measured MIC for this compound: CCCCCCOC(=O)c1cc(O)c(O)c(O)c1 [Hexyl gallate, n-hexyl gallate] 31.3

Please give the measured MIC for this compound: CCCCOC(=O)c1cc(O)c(O)c(O)c1 [Butyl gallate, n-butyl gallate] 125

Please give the measured MIC for this compound: CCOC(=O)c1cc(O)c(O)c(O)c1 [Ethyl gallate, ethyl gallate] 125

Please give the measured MIC for this compound: CCCCCCCCCCOC(=O)c1cc(O)c(O)c(O)c1 [Decyl gallate, n-decyl gallate] 15.7

Please give the measured MIC for this compound: CCCOC(=O)c1cc(O)c(O)c(O)c1 [Propyl gallate, n-propyl gallate] 125

Please give the measured MIC for this compound: COC(=O)c1cc(O)c(O)c(O)c1 [Methyl gallate, methyl gallate] 250

Please give the measured MIC for this compound: CCCCCCCCOC(=O)c1cc(O)c(O)c(O)c1 [Octyl gallate, n-octyl gallate] 31.3

Please give the measured MIC for this compound: CCCCCCCOC(=O)c1cc(O)c(O)c(O)c1 [Heptyl gallate, n-heptyl gallate] 31.3

Please give the measured MIC for this compound: CCCCCOC(=O)c1cc(O)c(O)c(O)c1 [Pentyl gallate, n-pentyl gallate] 62.5

Please give the measured MIC for this compound: O=C(O)c1cc(O)c(O)c(O)c1 [Gallic acid, gallic acid, reference compound] 31.3

Please give the measured MIC for this compound: CCCCCCCCCOC(=O)c1cc(O)c(O)c(O)c1 [Nonyl gallate, n-nonyl gallate] 15.7
